The following compounds are listed with their measured GI50 values.
System: TK-10
Assay: NCI tumour cell line growth inhibition, 48 h
Calls of active or inactive are those of the source. No stated cut-off is given here; in the data, active = GI50 up to about 1.1 µM and inactive = higher.

Below, each entry is followed by its recorded GI50 result.
Enquiry: Which GI50 value is on record for COC1OC2COC(c3ccccc3)OC2C(OC(=S)c2ccccc2)C1O (stereo unspecified) ?
Return: 28.2 µM (inactive)

Enquiry: Param item: Cc1cccc(C)c1NC(=O)/C(=N/NC(N)=S)C(C)C(=O)c1ccc(Cl)cc1 (stereo unspecified)
Return: > 100 µM (inactive)

Enquiry: Please answer likewise for O=C(CC(C(=O)c1ccco1)c1ccco1)c1ccco1 (stereo unspecified)
Return: > 100 µM (inactive)

Enquiry: And the next one, C[C@@H](c1ccccc1)N1CN(C(=O)OCc2ccccc2)C(CO)C1=O (stereo partly specified) ?
Return: > 100 µM (inactive)

Enquiry: Do the same for O=C(/C=C/c1ccccc1Cl)c1ccc(Cl)c(Cl)c1 please
Return: 18.5 µM (inactive)

---
Enquiry: What does the data say about its GI50? Entry: COC(=O)/C(=C/c1ccc(OC)cc1)C(C(=O)O)=C1CCCC1
Return: > 100 µM (inactive)

Enquiry: Cool, now CON(C)c1nc(N(C)OC)nc(N(C)OC)n1
Return: > 10 µM (inactive)

Enquiry: Quick one: CCOC(=O)c1oc2ccc(OC)c3c2c1CCC3
Return: 83.8 µM (inactive)

Enquiry: Query O=S(=O)(c1ccccc1)c1ccc(/N=N/O)nc1 next
Return: > 100 µM (inactive)

Enquiry: Subsequent entry: O=CC12c3ccccc3C(c3ccccc31)C1C(=O)NC(=O)C12 (stereo unspecified)
Return: > 100 µM (inactive)

Enquiry: Now this one: COc1cc2c(cc1OC)C1C=NC(C(=O)O)(C2)c2ccccc21 (stereo unspecified)
Return: > 100 µM (inactive)
